All values here come from patent US20210340217A1.

- system.name: HLA-B*44:02 (Homo sapiens, UniProt P01889, A223V/A65T/A93T/A95T/D201E/D98Y/E176V/E187L/E204Q/E69K/G107R/H137Y/K202T/L105A/L119I/N104T/N87E/Q56L/Q94N/R106L/R155S/R180D/S101N/S121R/S35A/S48T/T118I/V36M/W191S/Y140D/Y91S)
- assay.text: MHC binding assay (UV-ligand exchange, beta2m ELISA)
- test.conditions: peptide exchange yield
metric.name: Peptide exchange

// below: answered substances
53 (MEHPGKLLF; listed as Homo sapiens) [compound 53]
“+++” (>50 = +++)
197 (AEVLLPRLV; listed as Homo sapiens) [compound 197]
“+++” (>50 = +++)
181 (GEGPKTSW; listed as Homo sapiens) [compound 181]
“++” (>20% = ++)
438 (SEVDSPNVL; listed as Homo sapiens) [compound 438]
“+++” (>50 = +++)
213 (KESIPRWYY; listed as Homo sapiens) [compound 213]
“++” (>20% = ++)
194 (KEVDPTSHSY; listed as Homo sapiens) [compound 194]
“++” (>20% = ++)
200 (AESIPTVSF; listed as Homo sapiens) [compound 200]
“+++” (>50 = +++)
409 (REFVLSKGDAGL; listed as Homo sapiens) [compound 409]
“+++” (>50 = +++)
410 (SEDPSKLEA; listed as Homo sapiens) [compound 410]
“+” (>10% = +)
190 (YEVARILNL; listed as Homo sapiens) [compound 190]
“++” (>20% = ++)

Proceed to the following item.
Field request: Peptide exchange | item: 434 (KEAIREHQM; listed as Homo sapiens) [compound 434] “++” (>20% = ++)

====

- system.name: HLA-A*02:01 (Homo sapiens, UniProt P04439, D140Y/D185E/D98H/E176V/E277Q/G131W/G231S/I119V/I121R/I166T/I218V/L300P/L318F/N151K/N90K/P208A/P217A/Q86G/Q94H/R138H/R169H/T345S)
- assay.text: MHC binding assay (UV-ligand exchange, beta2m ELISA)
- test.conditions: peptide exchange yield
metric.name: Peptide exchange

Illustrative cases are given below, each with its answer.
219 (PLPRPGAVL; listed as Homo sapiens) [compound 219]
+ (>10% = +)
71 (YLEDTDRNL; listed as Homo sapiens) [compound 71]
++++ (>75% = ++++)
72 (YLTDLQVSL; listed as Homo sapiens) [compound 72]
++++ (>75% = ++++)
7 (ALQAFEFRV; listed as Homo sapiens) [compound 7]
++++ (>75% = ++++)
236 (SAIPFSMTL; listed as Homo sapiens) [compound 236]
+++ (>50 = +++)

What does the data say about its Peptide exchange? Entry: 229 (ISVPAKTSL; listed as Homo sapiens) [compound 229] + (>10% = +)

Then 224 (SLPRFQVTL; listed as Homo sapiens) [compound 224] ? ++++ (>75% = ++++)

Field entry: 225 (SVFAHPRKL; listed as Homo sapiens) [compound 225] +++ (>50 = +++)

Field entry: 69 (TTYEGSITV; listed as Homo sapiens) [compound 69] ++++ (>75% = ++++)

// repeat for 227 (YTFRYPLSL; listed as Homo sapiens) [compound 227] and report +++ (>50 = +++)

Same again, this time with 67 (SLLLPSIFL; listed as Homo sapiens) [compound 67] ++++ (>75% = ++++)

Now the same for 64 (FLDPDRHFL; listed as Homo sapiens) [compound 64] ++++ (>75% = ++++)

How about 223 (FAHHGRSL; listed as Homo sapiens) [compound 223] ? + (>10% = +)

232 (TISSLTHEL; listed as Homo sapiens) [compound 232] ? ++++ (>75% = ++++)

Consider next the substance 6 (SLGKHTVAL; listed as Homo sapiens) [compound 6] in the same way. +++ (>50 = +++)

Also, 243 (YASEGVKQV; listed as Homo sapiens) [compound 243] please. +++ (>50 = +++)

Similarly, 62 (KVLGVNVML; listed as Homo sapiens) [compound 62] ? ++++ (>75% = ++++)

Try this substance too: 5 (RLLDFINVL; listed as Homo sapiens) [compound 5] ++++ (>75% = ++++)

Input 217 (VSSSLTLKV; listed as Homo sapiens) [compound 217] + (>10% = +)

====

- system.name: HLA-B*07:02 (Homo sapiens)
- assay.text: MHC binding assay (UV-ligand exchange, beta2m ELISA)
- test.conditions: peptide exchange yield
metric.name: Peptide exchange

Known results for substances:
318 (FPNRLNLEA; listed as Homo sapiens) [compound 318]
“+++” (>50 = +++)
36 (APAAWLRSA; listed as Homo sapiens) [compound 36]
“++” (>20% = ++)
299 (HPGSSALHY; listed as Homo sapiens) [compound 299]
“++” (>20% = ++)
361 (SPTHVTQSL; listed as Homo sapiens) [compound 361]
“+++” (>50 = +++)
121 (VPNQSSESL; listed as Homo sapiens) [compound 121]
“+++” (>50 = +++)

Quick one: Peptide exchange for 307 (LPYGPGSEAAAF; listed as Homo sapiens) [compound 307] ? “+++” (>50 = +++)

# repeat for 387 (APLKLSRTPA; listed as Homo sapiens) [compound 387] “+++” (>50 = +++)

Now try 314 (VPDQPHPEI; listed as Homo sapiens) [compound 314] . “+++” (>50 = +++)

Same question for 337 (HPVETSSAL; listed as Homo sapiens) [compound 337] please. “+++” (>50 = +++)

Next substance up: 123 (KPSESIYSAL; listed as Homo sapiens) [compound 123] “+++” (>50 = +++)

Next substance: 372 (IPRNPPPTLL; listed as Homo sapiens) [compound 372] “+++” (>50 = +++)

What do you get for 140 (SPRTEASSAVL; listed as Homo sapiens) [compound 140] ? “+++” (>50 = +++)

Repeat for the following substance: 34 (LPRGPLASLL; listed as Homo sapiens) [compound 34] “+++” (>50 = +++)

====

- system.name: HLA-B*44:02 (Homo sapiens, UniProt P01889, A223V/A65T/A93T/A95T/D201E/D98Y/E176V/E187L/E204Q/E69K/G107R/H137Y/K202T/L105A/L119I/N104T/N87E/Q56L/Q94N/R106L/R155S/R180D/S101N/S121R/S35A/S48T/T118I/V36M/W191S/Y140D/Y91S)
- assay.text: MHC binding assay (UV-ligand exchange, beta2m ELISA)
- test.conditions: peptide exchange yield
metric.name: Peptide exchange

436 (REPGDIFSEL; listed as Homo sapiens) [compound 436]
“++” (>20% = ++)
185 (AERQPGAASL; listed as Homo sapiens) [compound 185]
“++” (>20% = ++)
413 (IEALSGKIEL; listed as Homo sapiens) [compound 413]
“++” (>20% = ++)
209 (TEVSRTEL; listed as Homo sapiens) [compound 209]
“++” (>20% = ++)
189 (KEFLFNMY; listed as Homo sapiens) [compound 189]
“++” (>20% = ++)
206 (SESVTSRTSY; listed as Homo sapiens) [compound 206]
“+++” (>50 = +++)
418 (FEDAQGHIW; listed as Homo sapiens) [compound 418]
“+++” (>50 = +++)
412 (QEILTQVKQ; listed as Homo sapiens) [compound 412]
“++” (>20% = ++)

For the next question, use this substance.
Which measured Peptide exchange value corresponds to 186 (REGPEEPGL; listed as Homo sapiens) [compound 186] ? “++” (>20% = ++)

====

- system.name: HLA-A*03:01 (Homo sapiens, UniProt P04439)
- assay.text: MHC binding assay (UV-ligand exchange, beta2m ELISA)
- test.conditions: peptide exchange yield
metric.name: Peptide exchange

Look over these answered cases.
87 (AVAPPTPASK; listed as Homo sapiens) [compound 87]
++ (>20% = ++)
93 (KILEEHTNK; listed as Homo sapiens) [compound 93]
++ (>20% = ++)
27 (VLYGPAGLGK; listed as Homo sapiens) [compound 27]
+++ (>50 = +++)
262 (RSRLNPLVQR; listed as Homo sapiens) [compound 262]
++ (>20% = ++)
271 (RMFADDLHNLNK; listed as Homo sapiens) [compound 271]
+++ (>50 = +++)
94 (ATFERVLLR; listed as Homo sapiens) [compound 94]
+++ (>50 = +++)
21 (AVRKPIVLK; listed as Homo sapiens) [compound 21]
+++ (>50 = +++)
84 (KLQPAQTAAK; listed as Homo sapiens) [compound 84]
++ (>20% = ++)

Next substance, Peptide exchange to be filled in.
# query: Peptide exchange of entry 99 (KVVDRWNEK; listed as Homo sapiens) [compound 99] ++ (>20% = ++)
